Hello, the source for this data is PubChem BioAssay (NCI), in case you need it.

Tested on: SNB-19 CNS
Experiment: NCI-60 one-dose screen, 48 h
Settings: 10 µM
Compounds without any hit were thinned out: in the full panel of roughly 83,000, 20% have a hit. Activity calls are given as the source filed them. How the source made its calls: active means growth percent below 10; inactive means the rest.
Lab note: assign the record to one of True for active, False for inactive

Reference set, count: 5
compound: CCOC(=O)Nc1cc2c(c(N)n1)N=C(c1ccccc1)CO2
tested.on: SNB-19 CNS
class: False
//
compound: O=C1C=CC(=O)N1c1ccc(I)cc1Cl
tested.on: SNB-19 CNS
class: False
//
compound: COc1cc2nn(-c3ccccc3N)nc2cc1OC
tested.on: SNB-19 CNS
class: False
//
compound: O=[N+]([O-])c1ccc(-c2ncc(-c3ccc(Br)cc3)o2)cc1
tested.on: SNB-19 CNS
class: False
//
compound: OCC(O)C(O)C(O)C(O)/C=N/O (centres undefined)
tested.on: SNB-19 CNS
class: False

Which result was noted for this compound in the test: NC(CSC(c1ccccc1)(c1ccccc1)c1ccccc1)C(=O)O (centres undefined)
False

Which result was noted for this compound in the test: CCN1C(=O)/C(=C/C=C/N(C)c2ccccc2)SC1=S
False

Which result was noted for this compound in the test: CC1CCCCN1C(=S)Nc1ccc(S(=O)(=O)N2CCCCC2)cc1 (centres undefined)
False

Which result was noted for this compound in the test: c1ncc2[nH]cnc2n1
False

Which result was noted for this compound in the test: COc1ccc(NC(=O)CCl)cc1
False

Which result was noted for this compound in the test: CCOC(=O)Nc1nn[nH]n1
False

Which result was noted for this compound in the test: COC(=O)c1ccc(NC(=O)CCl)cc1
False

====

System: SF-295 CNS
Test: NCI-60 one-dose screen, 48 h (100 = growth as untreated, 0 = no growth, -100 = all killed)
Settings: 10 µM
This is part of a sample that, as a whole, favours compounds with a hit. Of some 83,000 tested, about 20% had one in any assay.
Consider the following molecules; for each one, report its growth.
One number for each entry, in %.

molecule: COc1ccc(C(C)C=O)cc1 (stereo not given)
tested.on: SF-295 CNS
growth (%): 115
--
molecule: CC(CN1CCCCC1)NC(=O)c1scnc1-c1ccccc1 (stereo not given)
tested.on: SF-295 CNS
growth (%): 79
--
molecule: C=CCNc1ccccc1
tested.on: SF-295 CNS
growth (%): 138
--
molecule: O=C(Cc1nc2ccc([N+](=O)[O-])cc2nc1CC(=O)c1ccccc1)c1ccccc1
tested.on: SF-295 CNS
growth (%): 53

Let's switch to this molecule now.
What value of growth has been reported for the following molecule? CCc1nn(Cc2ccccc2)c2nc(C)c(CCc3ccccc3)c(Cl)c12
85.1

====

Tested on: NCI-H460 lung
Test: NCI-60 one-dose screen, 48 h (100 = growth as untreated, 0 = no growth, -100 = all killed)
Details: 10 µM
About 83,000 compounds went through this panel and 20% of them were active in at least one assay; those are over-represented in the sample as a whole.
readout.type: growth (%)
Give bare numbers, in %.

Worked cases, answers included:
chemical.string: CC(C)=NNC(N)=S
quantity.unit: %
growth: 83.4

chemical.string: CCOC(=O)/C(=C/c1ccc(OC)cc1)N(CC)CC
quantity.unit: %
growth: 103

chemical.string: CC(=O)c1ccc(C(C)(C)C)cc1
quantity.unit: %
growth: 106

chemical.string: CCOc1ccc(I)cc1
quantity.unit: %
growth: 108

What value of growth has been reported for the following compound? CCN1C(=O)/C(=C/C=C/N(C)c2ccccc2)SC1=S
94.7

====

Tested on: SNB-75 CNS
Assay: NCI-60 one-dose screen, 48 h (100 = growth as untreated, 0 = no growth, -100 = all killed)
Conditions: 10 µM
This is part of a sample that, as a whole, favours compounds with a hit. Of some 83,000 tested, about 20% had one in any assay.
Consider the following molecules; for each one, report its growth.
One number for each entry, in %.

Worked cases, answers included:
molecule: CC1(C(N)=O)CCC(C(=O)O)C1(C)C (stereo not given)
quantity.unit: %
growth: 92.4
--
molecule: CN(C)c1ccc(CNC(C(=O)c2ccccc2)c2ccccc2)cc1 (stereo not given)
quantity.unit: %
growth: 90.4
--
molecule: CCNc1nc2c(cnn2C)c(=O)[nH]1
quantity.unit: %
growth: 88.6
--
molecule: Cc1cc(=O)n(-c2ccc(F)cc2)[nH]1
quantity.unit: %
growth: 88.5

Let's switch to this molecule now.
What value of growth has been reported for the following molecule? C[C@@H](c1ccccc1)[C@@H](C(=O)O)c1ccccc1
88.4

====

Tested on: SN12C renal
Experiment: NCI-60 one-dose screen, 48 h (100 = growth as untreated, 0 = no growth, -100 = all killed)
Conditions: 10 µM
About 83,000 compounds went through this panel and 20% of them were active in at least one assay; those are over-represented in the sample as a whole. Calls of active or inactive are those of the source. How the source made its calls: active means growth percent below 10; inactive means the rest.
Consider the following compounds; for each one, report its growth.

Worked cases, answers included:
compound: O=c1[nH]cc(Cl)cc1O
data.value: 95% (inactive)
--
compound: O=C(O)CSCSCC(=O)O
data.value: 104% (inactive)
--
compound: CC(=O)OCCO
data.value: 98.5% (inactive)
--
compound: O=c1[nH]nc(SC2CCCCC2)c(=O)[nH]1
data.value: 102% (inactive)

Hi team, please reply with growth for each item in this list.
1. COc1cc(C2c3cc4c(cc3C3OC(=O)C2C3CO)OCO4)cc(OC)c1OC (centres undefined)
2. CCS(=O)(=O)CCCl
3. O=C1C=CC(=O)N1c1ccc(I)cc1Cl
4. COC(=O)c1ccccc1N(C)C
5. O=C(O)C(c1ccccc1)C(O)c1ccccc1 (centres undefined)
6. Nc1ccccc1SC(CC(=O)c1ccccc1)c1c(Cl)cccc1Cl (centres undefined)
7. O=S(=O)(O)c1cc(O)c2c(N=Cc3ccccc3O)c(S(=O)(=O)O)ccc2c1
8. Cc1cc(OCCO)cc(C)c1Cl

1. 23.8% (inactive)
2. 97.8% (inactive)
3. 101% (inactive)
4. 103% (inactive)
5. 98.2% (inactive)
6. 62.9% (inactive)
7. 109% (inactive)
8. 98.9% (inactive)

Hi team, please reply with growth for each item in this list.
1. COc1cc(CN)ccc1O
2. CC1CCC2C(C)(C)C3CC12CC1OC13C (centres undefined)

1: 81.7% (inactive); 2: 97.1% (inactive)

====

System: A498 renal
Test: NCI-60 one-dose screen, 48 h
Conditions: 10 µM
This is part of a sample that, as a whole, favours compounds with a hit. Of some 83,000 tested, about 20% had one in any assay. Activity calls are given as the source filed them. Rule for the calls: active = growth percent below 10; inactive = the rest.
Lab note: assign the record to one of active, inactive

Reference set, count: 4
compound: CC1(C(N)=O)CCC(C(=O)O)C1(C)C (stereo not drawn)
tested.on: A498 renal
class: inactive

compound: c1cc2cccc3c4cccc5cccc(c(c1)c23)c54
tested.on: A498 renal
class: inactive

compound: CN(C)CCN(C)CC(C)(C)C(=O)/C=C/c1ccc(Cl)cc1
tested.on: A498 renal
class: inactive

compound: OCCN1CCOCC1
tested.on: A498 renal
class: inactive

Which result was noted for this compound in the test: CCOC(=O)c1ccc(Nc2sc(C(=O)c3cccc([N+](=O)[O-])c3)c(N)c2C#N)cc1
inactive

Which result was noted for this compound in the test: CCOC(=O)c1coc(C(=O)OCC)c1C(=O)OCC
inactive

Which result was noted for this compound in the test: Oc1ccc(O)cc1
inactive

Which result was noted for this compound in the test: O=C1OC(=O)C2C1C1(Cl)C(Cl)=C(Cl)C2(Cl)C2C(=O)OC(=O)C21 (stereo not drawn)
inactive

Which result was noted for this compound in the test: CCC(C#N)(CC)c1ccccc1
inactive

====

System: MDA-MB-435 melanoma
Assay: NCI-60 one-dose screen, 48 h (100 = growth as untreated, 0 = no growth, -100 = all killed)
Conditions: 10 µM
The panel holds about 83,000 compounds, 20% with a hit somewhere; the sample as a whole holds those more often.
readout.type: growth (%)
Give bare numbers, in %.

compound: O=c1cc(-c2ccccc2)[nH]c2c1CCCC2
readout.type: growth
quantity.unit: %
data.value: -12.9

Hi team, please reply with growth for each item in this list.
1. O/N=C/c1ccc(O)cc1O
2. COc1cc([C@@H]2c3cc4c(cc3[C@H](O)[C@H]3COC(=O)[C@H]23)OCO4)cc(OC)c1OC
3. CC1=CC(C)(C)NC(=S)N1c1ccc(S(=O)(=O)O)c2cccc(S(=O)(=O)O)c12
4. Cc1cc(C(C)(C)C)cc(C)c1Br
5. O=c1[nH][nH]c(=O)c2cc([N+](=O)[O-])ccc12
6. CCOC(=O)CCCC(=O)OCC

1. 107
2. -30.3
3. 106
4. 110
5. 109
6. 106

Hi team, please reply with growth for each item in this list.
1. COC(=O)/C=C1\Sc2cc(F)ccc2NC1=O
2. CCCCCCCO
3. CCCCCCCCCCC1CO1 (configuration not stated)
4. CCOC(=O)CCCS(C)(=O)=O
5. O=c1cc(-c2ccccc2)oc2c1ccc1ccccc12
6. COc1cc(C(N)=O)cc(OC)c1OC
7. CCC/C=C(\C)C(C)(C#N)C(=O)OCC (configuration not stated)
8. C[C@@H](c1ccccc1)[C@@H](C(=O)O)c1ccccc1

1. 100
2. 114
3. 112
4. 119
5. 88.6
6. 116
7. 96.3
8. 104
